# experiment: AUC(0 to t) in mouse at 5 mg/kg, iv
# Format: ADME, organism-based
# experimental-setup: in vivo

smiles-data | unit-text | AUC(0-t)
CCOc1ccc(-c2ccc(C(C3=C(O)CC(C)(C)CC3=O)C3=C(O)CC(C)(C)CC3=O)s2)cc1 | ng·h/mL | 1140

###

# tested-on: CYP1A2 (Homo sapiens)
# Sequence (P05177 whole entry): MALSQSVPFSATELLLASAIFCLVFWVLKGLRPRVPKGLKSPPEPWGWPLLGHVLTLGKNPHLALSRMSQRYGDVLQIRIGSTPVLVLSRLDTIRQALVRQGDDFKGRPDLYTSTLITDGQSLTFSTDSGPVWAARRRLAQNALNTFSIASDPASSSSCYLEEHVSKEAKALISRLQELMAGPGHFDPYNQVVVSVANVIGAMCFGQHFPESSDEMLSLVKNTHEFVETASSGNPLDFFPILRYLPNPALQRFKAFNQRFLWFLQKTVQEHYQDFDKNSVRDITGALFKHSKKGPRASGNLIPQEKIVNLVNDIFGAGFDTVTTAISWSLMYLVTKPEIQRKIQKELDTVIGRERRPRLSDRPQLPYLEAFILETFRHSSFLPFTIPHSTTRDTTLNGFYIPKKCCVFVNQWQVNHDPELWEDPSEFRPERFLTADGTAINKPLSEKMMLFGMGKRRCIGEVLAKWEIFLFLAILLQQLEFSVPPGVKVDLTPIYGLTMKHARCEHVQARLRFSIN
# experiment: Inhibition of CYP1A2 in human liver microsomes at 10 uM relative to control
# Assay type: ADME, Microsome
observation-type: inhibition at 10 µM (%)

smiles-data | observed-measurement
CCOc1ccc(-c2ccc(C(C3=C(O)CC(C)(C)CC3=O)C3=C(O)CC(C)(C)CC3=O)s2)cc1 | 82.6

###

# experiment: Cmax in mouse at 20 mg/kg, po
# Type: ADME, organism-based
# experimental-setup: in vivo

smiles-data | Cmax
CCOc1ccc(-c2ccc(C(C3=C(O)CC(C)(C)CC3=O)C3=C(O)CC(C)(C)CC3=O)s2)cc1 | 0.43 µg/mL

###

# experiment: Volume of distribution at steady state in mouse at 5 mg/kg, iv
# Assay type: ADME, organism-based
# experimental-setup: in vivo, read-out: Vdss

smiles-data | unit-text | Vd
CCOc1ccc(-c2ccc(C(C3=C(O)CC(C)(C)CC3=O)C3=C(O)CC(C)(C)CC3=O)s2)cc1 | L/kg | 0.63

###

# experiment: Mean residence time (0 to infinity) in mouse at 5 mg/kg, iv
# Assay type: ADME, organism-based
# experimental-setup: in vivo

smiles-data | MRT inf [min]
CCOc1ccc(-c2ccc(C(C3=C(O)CC(C)(C)CC3=O)C3=C(O)CC(C)(C)CC3=O)s2)cc1 | 6

###

# tested-on: CYP2C9 (Homo sapiens)
# Sequence (P11712 whole entry): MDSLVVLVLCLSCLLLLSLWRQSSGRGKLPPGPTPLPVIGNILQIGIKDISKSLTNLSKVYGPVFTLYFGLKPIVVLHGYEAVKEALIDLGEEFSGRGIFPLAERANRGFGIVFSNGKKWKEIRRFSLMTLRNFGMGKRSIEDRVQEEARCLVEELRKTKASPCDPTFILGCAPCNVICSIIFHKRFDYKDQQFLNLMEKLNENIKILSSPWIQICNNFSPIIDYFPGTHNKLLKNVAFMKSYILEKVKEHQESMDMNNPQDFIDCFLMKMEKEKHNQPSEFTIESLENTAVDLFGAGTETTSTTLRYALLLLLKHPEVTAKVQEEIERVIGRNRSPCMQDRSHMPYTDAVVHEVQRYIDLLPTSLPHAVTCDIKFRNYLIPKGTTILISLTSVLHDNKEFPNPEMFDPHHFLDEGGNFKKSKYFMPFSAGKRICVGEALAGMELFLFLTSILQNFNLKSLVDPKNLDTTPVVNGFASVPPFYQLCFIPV
# experiment: Inhibition of CYP2C9 in human liver microsomes at 10 uM relative to control
# Type: ADME, Microsome

smiles-data | inhibition at 10 µM, %
CCOc1ccc(-c2ccc(C(C3=C(O)CC(C)(C)CC3=O)C3=C(O)CC(C)(C)CC3=O)s2)cc1 | 47.5
